# Study target: T1, native IHFNTHI (integration host factor of nontypeable Haemophilus influenzae) (nontypeable Haemophilus influenzae …, UniProt P43723 1-96; P43724 1-94)
# T1 construct: also called NTHI IHF
# T1 sequence 1: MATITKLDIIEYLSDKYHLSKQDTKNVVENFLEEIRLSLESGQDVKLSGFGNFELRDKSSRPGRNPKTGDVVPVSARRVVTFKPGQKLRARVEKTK
# T1 sequence 2: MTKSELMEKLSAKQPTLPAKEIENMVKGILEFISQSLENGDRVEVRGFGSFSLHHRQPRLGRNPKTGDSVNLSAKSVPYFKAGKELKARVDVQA
# Assay text: SPR Biacore 3000, HuMab immobilized, IHFNTHI as analyte
Recorded endpoint: pKd
Scale: negative log10 of molar concentration, which is what pKd denotes.

Hello, please tell me recorded pKd for this one: humanized anti-tip monoclonal antibody, heavy chain SEQ ID NO: 2 and light chain SEQ ID NO: 8 (antibody, V domains shown, also called H10211 (1F8.F1 Humanized HC2) + L10211 (1F8.F1 Humanized LC2)) VH: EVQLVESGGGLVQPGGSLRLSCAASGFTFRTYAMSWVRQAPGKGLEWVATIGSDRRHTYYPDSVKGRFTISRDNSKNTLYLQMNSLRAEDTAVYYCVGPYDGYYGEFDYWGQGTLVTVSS VL: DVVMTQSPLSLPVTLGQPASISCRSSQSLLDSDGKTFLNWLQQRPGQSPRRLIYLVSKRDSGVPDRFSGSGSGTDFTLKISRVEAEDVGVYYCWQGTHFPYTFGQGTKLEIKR 8.05

Others:
Hello, please tell me recorded pKd for this one: humanized anti-tip monoclonal antibody, heavy chain SEQ ID NO: 3 and light chain SEQ ID NO: 8 (antibody, V domains shown, also called H10212 (1F8.F1 Humanized HC3) + L10211 (1F8.F1 Humanized LC2)) VH: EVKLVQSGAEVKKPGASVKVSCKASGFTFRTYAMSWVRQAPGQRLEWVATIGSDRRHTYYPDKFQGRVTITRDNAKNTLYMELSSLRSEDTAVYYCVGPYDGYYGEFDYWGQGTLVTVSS VL: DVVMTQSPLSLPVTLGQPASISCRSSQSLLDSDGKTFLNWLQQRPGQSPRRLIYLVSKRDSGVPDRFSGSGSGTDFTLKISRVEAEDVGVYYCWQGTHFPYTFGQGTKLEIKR 6.61
